Biological target: CYP 2C19 (Homo sapiens, UniProt P33261)
Sequence (P33261 whole entry): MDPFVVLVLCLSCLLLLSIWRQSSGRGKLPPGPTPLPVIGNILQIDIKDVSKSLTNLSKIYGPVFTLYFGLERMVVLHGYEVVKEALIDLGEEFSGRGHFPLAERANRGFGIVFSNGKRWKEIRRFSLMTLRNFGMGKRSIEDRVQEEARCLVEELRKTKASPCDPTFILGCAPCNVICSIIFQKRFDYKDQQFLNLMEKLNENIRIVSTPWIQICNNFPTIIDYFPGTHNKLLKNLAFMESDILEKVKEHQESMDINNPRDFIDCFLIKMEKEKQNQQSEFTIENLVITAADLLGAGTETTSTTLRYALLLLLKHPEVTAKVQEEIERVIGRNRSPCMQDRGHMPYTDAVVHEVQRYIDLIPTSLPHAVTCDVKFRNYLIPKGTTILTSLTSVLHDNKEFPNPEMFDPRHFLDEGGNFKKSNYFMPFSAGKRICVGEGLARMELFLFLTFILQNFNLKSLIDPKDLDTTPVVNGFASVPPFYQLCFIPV
Experiment: Kinetics of fluorogenic substrates with CYP 2C19
Type: biochemical
Settings: CYP 2C19, substrate 10 uM
quantity.name: v (10 uM), turnover rate at 10 μM (min⁻¹)
One number for each entry, in min⁻¹.

1) COc1ccc2cc(C#N)c(=O)oc2c1 [3CMC, 3-cyano-7-methoxycoumarin, reference compound]	0.07

List reported v (10 uM), turnover rate at 10 μM for each of these compounds:
1. CCN(CC)Cc1cc(=O)oc2cc(OC)ccc12 [DMMC]
2. COCOc1ccc2nc3ccc(=O)cc-3oc2c1 [MOMR]

1: 0.23; 2: 0.062
